# tested_system: CDK2 (Homo sapiens, UniProt P24941)
# Construct: HEK293 clonal lines with CRISPR KI HiBiT tag on CDK2 proteins; host or cells: HEK293 clonal line with CRISPR knock-in HiBiT on CDK2, stably expressing LgBiT
# assay_method_text: CDK2 HiBiT assay (degradation, Dmax)
# Assay type: cell-based
# assay_context: HEK293 clonal lines with CRISPR KI HiBiT tag on CDK2, stably expressing LgBiT; 24 hours incubation
measured_metric: Dmax

Completed entries (count: 2):
# compound, tested_system, Dmax
records = [
    ("O=C(CCc1cccc(-c2ccc(F)cc2)c1)NCc1ccc2c(c1)C(=O)N(C1CCC(=O)NC1=O)C2 (stereo not shown)", "CDK2 (Homo sapiens, UniProt P24941)", "≤ 10%"),
    ("N#Cc1cc(CNc2nnc(-c3ccc(OC(F)(F)F)cc3)o2)cc2c1CN(C1CCC(=O)NC1=O)C2=O (stereo not shown)", "CDK2 (Homo sapiens, UniProt P24941)", "10 to 50%"),
]

Quick batch: Dmax for everything below.
1. O=C1CCC(N2Cc3ccc(CNC(=O)OCCc4ccccc4)cc3C2=O)C(=O)N1 (stereo not shown)
2. O=C1CCC(N2Cc3ccc(CNC(=O)OCc4cccc(SC(F)(F)F)c4)cc3C2=O)C(=O)N1 (stereo not shown)
3. O=C1CCC(N2Cc3ccc(CNC(=O)OCc4ccc(OCC(F)(F)F)nc4)cc3C2=O)C(=O)N1 (stereo not shown)
4. O=C1CCC(N2Cc3ccc(CNC(=O)OCc4ccc(OC(F)(F)F)cc4F)cc3C2=O)C(=O)N1 (stereo not shown)
5. O=C1CCC(N2Cc3ccc(CNC(=O)OCc4cccc(-c5ccccc5)c4)cc3C2=O)C(=O)N1 (stereo not shown)
6. O=C1CCC(N2Cc3ccc(CNC(=O)OCCCc4ccccc4)cc3C2=O)C(=O)N1 (stereo not shown)
7. O=C1CCC(N2Cc3ccc(CNC(=O)OCc4cccc([N+](=O)[O-])c4)cc3C2=O)C(=O)N1 (stereo not shown)
8. O=C1CCC(N2Cc3ccc(CNc4nnc(-c5ccccc5)o4)cc3C2=O)C(=O)N1 (stereo not shown)

Response:
1: 10 to 50%; 2: 10 to 50%; 3: 10 to 50%; 4: 10 to 50%; 5: 10 to 50%; 6: 10 to 50%; 7: ≤ 10%; 8: 10 to 50%

Please supply Dmax for each of the following items, keeping them in order.
1. CC(C)(C)c1cccc(COC(=O)NCc2ccc3c(c2)C(=O)N(C2CCC(=O)NC2=O)C3)c1 (stereo not shown)
2. CC(C)c1ccc(COC(=O)NCc2ccc3c(c2)C(=O)N(C2CCC(=O)NC2=O)C3)cc1 (stereo not shown)

Response:
["10 to 50%", "10 to 50%"]

Count: 3. Required value per item: Dmax.
1. O=C1CCC(N2Cc3ccc(CNC(=O)OCc4ccc(CC(F)(F)F)cc4)cc3C2=O)C(=O)N1 (stereo not shown)
2. O=C1CCC(N2Cc3c(Cl)cc(CNc4nnc(-c5ccc(OC(F)(F)F)cc5)o4)cc3C2=O)C(=O)N1 (stereo not shown)
3. O=C1CCC(N2Cc3ccc(COC(=O)NCc4ccc(OC5CCOCC5)nc4)cc3C2=O)C(=O)N1 (stereo not shown)

Response:
1. 10 to 50%
2. 50 to 80%
3. 10 to 50%

Prompt: Fill in: Dmax of O=C1CCC(N2Cc3ccc(CNC(=O)OCc4ccc(C5(F)COC5)cc4)cc3C2=O)C(=O)N1 (stereo not shown) is ___
Response: 10 to 50%
